- Measured On: CXCR3 (Homo sapiens)
- Test Protocol: CXCR3 Ca2+ mobilization (FLIPR), stable hCXCR3-CHO cell line, I-TAC stimulated
- Format: cell-based
- Set-up: host or cells: CHO cells stably expressing hCXCR3
- Experimental Context: hCXCR3-CHO cells, I-TAC 100 nM stimulated Ca2+ response; read-out: Ca-ITAC
Measured Quantity: IC50 (µM)

[[record]]
molecule = "COc1cccc(S(=O)(=O)N(Cc2ccc(C#N)cc2)Cc2ccccn2)c1 [Example 178]"
measured_quantity = "IC50"
unit_of_measure = "µM"
observed_result = 2

[[record]]
molecule = "N#Cc1ccc(S(=O)(=O)N(Cc2ccc(C(=O)NCCc3ccc(S(N)(=O)=O)cc3)cc2)Cc2ccccn2)cc1 [Example 99]"
measured_quantity = "IC50"
unit_of_measure = "µM"
observed_result = 1.45


[1] CCOc1ccc(S(=O)(=O)N(Cc2ccc(C(=O)N[C@H](CO)Cc3ccccc3)cc2)Cc2ccccn2)cc1 [Example 87]
[2] N#Cc1ccc(S(=O)(=O)N(Cc2ccc(C(=O)NCc3ccncc3)cc2)Cc2ccccn2)cc1 [Example 137]
Between 1 and 2 , whose recorded IC50 is greater? Your choice should be expressed through its label.
1
(1: 17 µM, 2: 3 µM)

====

- Measured On: CXCR3 (Homo sapiens, UniProt P49682)
- Sequence (P49682 whole entry): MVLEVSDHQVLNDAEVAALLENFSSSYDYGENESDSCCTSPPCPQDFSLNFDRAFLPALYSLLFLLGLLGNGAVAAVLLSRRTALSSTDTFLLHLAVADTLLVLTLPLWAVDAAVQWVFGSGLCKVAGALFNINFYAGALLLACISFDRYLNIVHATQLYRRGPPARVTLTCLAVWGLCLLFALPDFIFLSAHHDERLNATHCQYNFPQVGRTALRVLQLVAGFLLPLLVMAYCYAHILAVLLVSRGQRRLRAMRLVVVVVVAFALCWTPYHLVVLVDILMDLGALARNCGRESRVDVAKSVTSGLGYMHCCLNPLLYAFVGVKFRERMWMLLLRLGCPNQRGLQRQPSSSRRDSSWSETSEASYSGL
- Test Protocol: CXCR3 Ca2+ mobilization (FLIPR), stable hCXCR3-CHO cell line, I-TAC stimulated
- Type: cell-based
- Design: host or cells: CHO cells stably expressing hCXCR3
- Experimental Context: hCXCR3-CHO cells, I-TAC 100 nM stimulated Ca2+ response; read-out: Ca-ITAC
Measured Quantity: IC50 (nM)

[[record]]
compound = "O=S(=O)(c1ccc(Cl)cc1)N(Cc1ccc(-c2nnn[nH]2)cc1)C1CCc2cc(Cl)ccc21 (stereo not drawn)"
observed_result = 350


[I] O=S(=O)(c1cccc(-c2ccccc2)c1)N(Cc1ccc(-c2nnn[nH]2)cc1)Cc1ccccn1
[II] Cc1nnc(CNC(=O)c2ccc(CN(Cc3ccccn3)S(=O)(=O)c3ccc(C#N)cc3)cc2)o1
[III] N#Cc1ccc(S(=O)(=O)N(Cc2ccc(C(=O)NCC(O)c3ccccc3)cc2)Cc2cccnc2)cc1 (stereo not drawn)
[IV] N#Cc1ccc(S(=O)(=O)N(Cc2ccc(C(=O)NCc3ccccc3)cc2)Cc2ccccn2)cc1
[V] CCOc1ccc(S(=O)(=O)N(Cc2ccc(-c3nnn[nH]3)c(F)c2)Cc2ccccn2)cc1
Order the entries by their reported IC50, beginning at the minimum. Respond with the label ranking, as requested.
V, IV, III, I, II

====

- Measured On: UniProt P49682
- Test Protocol: Chemotaxis assay IP10, L1.2 recombinant cells expressing hCXCR3
- Format: cell-based
- Experimental Context: L1.2 hCXCR3 cells, IP10 around 0.3 nM, 4 hours
Measured Quantity: IC50 (µM)

[A] O=S(=O)(c1ccc(Cl)cc1)N(Cc1ccc(-c2nnn[nH]2)cc1)Cc1ccccc1F
[B] N#Cc1ccc(S(=O)(=O)N(Cc2ccc(C(=O)NCC(O)c3ccccc3)cc2)Cc2ccccn2)cc1 (stereo not shown)
# query: argmin of IC50 over A and B Your choice should be expressed through its label.
B
(B: 0.01 µM, A: 0.47 µM)

[A] COc1cccc(CN(Cc2ccc(-c3nnn[nH]3)cc2)S(=O)(=O)c2ccc(Cl)cc2)c1
[B] O=C(NS(=O)(=O)c1cccc(Cl)c1)c1ccc(CN(Cc2ccccc2)S(=O)(=O)c2ccc(Cl)cc2)cc1
# query: argmin of IC50 over A and B Your choice should be expressed through its label.
B
